Tested on: AKT protein phosphorylated on serine 473 (P-AKT-S473) in PC3 human prostate carcinoma line
Test: Study of pAKT expression in PC3 human prostate carcinoma cells measured by the MSD Multi-spot Biomarker Detection technique (Test B)
Type: cell-based
Conditions: Homo sapiens, PC-3, P-AKT-S473 in PC3 cells, MSD sandwich immunoassay, 1 to 2 h incubation; absolute IC50, mean of 2 experiments
Procedure: The inhibitory activity of the molecules on AKT phosphorylation is measured either by western blotting using the technique described below, or by the MSD Multi-spot Biomarker detection technique from Meso Scale Discovery also described below. Study of pAKT Expression in PC3Human Prostate Carcinoma Cells Measured by the MSD Multi-Spot Biomarker Detection Technique from Meso Scale Discovery (Test B): […]
Reported values of log10 of IC50 for individual entries
Log10 applied to IC50; unit prior to transform: nM.

What does the data say about its log10 of IC50? Entry: O=C(c1ccc(F)cc1F)N1c2nc(N3CCOCC3)cc(=O)n2CC[C@H]1C(F)(F)F [Example 44] 2.03

====

system: AKT protein phosphorylated on serine 473 (P-AKT-S473) in PC3 human prostate carcinoma line; experiment: Study of pAKT expression in PC3 human prostate carcinoma cells measured by the MSD Multi-spot Biomarker Detection technique (Test B); format: cell-based; settings: Homo sapiens, PC-3, P-AKT-S473 in PC3 cells, MSD sandwich immunoassay, 1 to 2 h incubation; absolute IC50, mean of 2 experiments
Measured pIC50 accompanies every entry in the list below.
Entry type: numeric. Quantity: pIC50, the -log10 of concentration in molar units.

Name the reported pIC50 value associated with the molecule COc1ccc(N2c3nc(N4CCOCC4)cc(=O)n3CC[C@H]2C(F)(F)F)cc1 [Example 27] 8.00

Name the reported pIC50 value associated with the molecule O=c1cc(N2CCOCC2)nc2n1CC[C@@H](C(F)(F)F)N2c1ccc(F)cc1 [Example 13] 7.60

Query (molecule): COc1ccccc1CCN1c2nc(N3CCOCC3)cc(=O)n2CC[C@H]1C(F)(F)F [Example 24] ; field requested: pIC50 8.05

Quick check: pIC50 of COc1cccc(CCN2c3nc(N4CCOCC4)cc(=O)n3CC[C@H]2C(F)(F)F)c1 [Example 25] ? 8.15

Return reported pIC50; argument: Cc1ccc(N2c3nc(N4CCOCC4)cc(=O)n3CC[C@H]2C(F)(F)F)cc1 [Example 21] 7.62

---
Give the measured pIC50 of O=c1cc(N2CCOCC2)nc2n1CC[C@@H](C(F)(F)F)N2CCc1cccc(Cl)c1 [Example 46] . 8.40

May I ask what pIC50 has been recorded for O=C(c1ccccc1F)N1c2nc(N3CCOCC3)cc(=O)n2CC[C@H]1C(F)(F)F [Example 28] ? 7.48

Look at this molecule and give its reported pIC50. O=c1cc(N2CCOCC2)nc2n1CC[C@@H](C(F)(F)F)N2c1cccnc1 [Example 19] 7.41

What does the data say about its pIC50? Entry: O=c1cc(N2CCOCC2)nc2n1CC[C@@H](C(F)(F)F)N2c1cccc(F)c1 [Example 14] 7.82

What value of measured pIC50 is listed for O=c1cc(N2CCOCC2)nc2n1CC[C@@H](C(F)(F)F)N2CCc1cccc(F)c1 [Example 40] ? 8.52

Dear colleague, I am looking for the recorded pIC50 of the following molecule: O=C(c1c(F)cccc1F)N1c2nc(N3CCOCC3)cc(=O)n2CC[C@H]1C(F)(F)F [Example 43] 7.80

# get_value(readout='pIC50', item= O=c1cc(N2CCOCC2)nc2n1CC[C@@H](C(F)(F)F)N2Cc1ccccc1Cl [Example 22] ) 7.64

Returns the measured pIC50 for the input molecule. Input: O=c1cc(N2CCOCC2)nc2n1CC[C@@H](C(F)(F)F)N2Cc1ccc(F)cc1F [Example 30] 7.37

Record request: pIC50 value, item O=c1cc(N2CCOCC2)nc2n1CC[C@@H](C(F)(F)F)N2c1ccc(C(F)(F)F)cc1 [Example 37] 7.74

Look up pIC50 for this molecule: O=c1cc(N2CCOCC2)nc2n1CC[C@@H](C(F)(F)F)N2Cc1cc(F)cc(F)c1 [Example 29] 7.66

The measured values listed here are drawn from patent US8846670B2.
